- Tested on: Male, Fischer 344 rats
- procedure.text: Block of Conditioned Avoidance Responding (Rat) test (CAR)
- assay.conditions: at CAR 5 mg/kg IP
Criterion: (Escape Loss) % failures to escape strictly less than 20%. Met: Satisfied. Not met: Not satisfied.

Field: example entries. Status: answers known.
[[record]]
structure = "CC(C)Oc1ccccc1N1CCN(Cc2cccc(C(=O)N(C)C3CCCCC3)c2)CC1"
measured_target = "Male, Fischer 344 rats"
class = "Not satisfied"

[[record]]
structure = "CC(C)Oc1ccccc1N1CCN(Cc2cccc(C(=O)N3CCC(=O)CC3)c2)CC1"
measured_target = "Male, Fischer 344 rats"
class = "Satisfied"

[[record]]
structure = "CC(C)Oc1ccccc1N1CCN(Cc2cccc(C(=O)N3CCCC(C)(C)C3)c2)CC1"
measured_target = "Male, Fischer 344 rats"
class = "Not satisfied"

[[record]]
structure = "CC(C)Oc1ccccc1N1CCN(Cc2cccc(S(=O)(=O)N3CCC(O)CC3)c2)CC1"
measured_target = "Male, Fischer 344 rats"
class = "Satisfied"


Query block: Could you please tell me whether (Escape Loss) % failures to escape recorded for "CC(C)Oc1ccccc1C1CCN(Cc2cccc(C(=O)N3[C@H](C)CCC[C@@H]3C)c2)CC1" is less than 20%?
Result block: Not satisfied

Query block: Could you please tell me whether (Escape Loss) % failures to escape recorded for "CC(C)Oc1ccccc1N1CCN(Cc2cccc(C(N)=O)c2)CC1" is less than 20%?
Result block: Not satisfied

Query block: Could you please tell me whether (Escape Loss) % failures to escape recorded for "COc1ccccc1N1CCN(Cc2cccc(C(=O)N3CCCCCC3)c2)CC1" is less than 20%?
Result block: Not satisfied
